# ASSAY TEXT: chemical genetic growth profiling, strain panel (AID 1159580);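 further: tested at 20 µM; growth read once vehicle control cultures reached saturation at 30 °C; 1 = growth at the plate median or of vehicle wells; lower values mean less growth of the strain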
# SETUP CONDITIONS: S. cerevisiae deletion strains, growth OD, locus YDR334W, strain swr1, stronger effect = lower value
Among all 5,500 compounds or so, about 2,000 (36%) were called active. Another 18% or so got no clear call; they are omitted. Some of the results follow.
Provide the reported normalized growth of each item.
Numbers only.

A selection of reference data follows.
{"COMPOUND": "CC1(C)C(=O)[C@@H]2O[C@@H]2[C@@]2(C)C1C[C@@H](O)[C@]1(C)C2CC[C@@]2(C)[C@H](c3ccoc3)OC(=O)C3OC321 (some centres undefined)", "MEASUREMENT KIND": "normalized growth", "ENDPOINT VALUE": 0.989}
{"COMPOUND": "NC(N)=NCCCCN=C(N)N", "MEASUREMENT KIND": "normalized growth", "ENDPOINT VALUE": 0.99}
{"COMPOUND": "CC(=O)O[C@H]1C[C@@H](OC(C)=O)C(C)(C)C2C[C@@H](O)[C@]3(C)C(CC[C@@]4(C)[C@H](c5ccoc5)OC(=O)[C@H]5O[C@]543)[C@]21C (some centres undefined)", "MEASUREMENT KIND": "normalized growth", "ENDPOINT VALUE": 0.993}
{"COMPOUND": "O=C(O)C(O)C(O)C(=O)O (centres undefined)", "MEASUREMENT KIND": "normalized growth", "ENDPOINT VALUE": 0.992}
{"COMPOUND": "C1N2CN3CN1CN(C2)C3", "MEASUREMENT KIND": "normalized growth", "ENDPOINT VALUE": 0.974}
{"COMPOUND": "CC(=O)O[C@@H]1CC2C(C)(C)[C@H](O)C=C[C@]2(C)C2CC[C@@]3(C)[C@H](c4ccoc4)OC(=O)C4OC43[C@@]21C (some centres undefined)", "MEASUREMENT KIND": "normalized growth", "ENDPOINT VALUE": 1.02}
{"COMPOUND": "CC(=O)C1CC[C@H]2C3CC[C@H]4C[C@H](O)CC[C@]4(C)C3CC[C@]12C (some centres undefined)", "MEASUREMENT KIND": "normalized growth", "ENDPOINT VALUE": 1.01}
{"COMPOUND": "C=NC(C(=O)NC1C(=O)N2C1SC(C)(C)C2C(=O)O)c1ccccc1 (centres undefined)", "MEASUREMENT KIND": "normalized growth", "ENDPOINT VALUE": 1}

Kindly give each listed record's normalized growth.
1. COc1cc(NS(C)(=O)=O)ccc1Cc1c2ccccc2nc2ccccc12
2. C=CCS(=O)C[C@H](N)C(=O)O (some centres undefined)
3. C[C@]12C=CC(=O)C=C1CCC1C2[C@@H](O)C[C@@]2(C)C1CC[C@]2(O)C(=O)CO (some centres undefined)

Output:
1. 1.01
2. 1.01
3. 0.992

Kindly give each listed record's normalized growth.
1. CC(=O)O[C@H]1CC[C@@]2(C)C(C[C@@H](OC(C)=O)[C@]3(C)C2CC[C@@]2(C)[C@H](c4ccoc4)OC(=O)[C@H]4O[C@]423)C1(C)C (some centres undefined)
2. CC(C)/C(O)=C1/C(=O)O[C@@H](c2ccoc2)[C@]2(C)C(O)[C@@H](O)[C@@]34OC5(C)OC67CC(C)(C(O)[C@]6(O)[C@@H](O)[C@]3(O5)C12)[C@H](CC(=O)O)[C@]74C (some centres undefined)
3. CC(O)(P(=O)(O)O)P(=O)(O)O

Output:
1. 0.985
2. 0.988
3. 0.987

The origin of these recorded values is PubChem BioAssay AID1159580.
